Target: BIR3 domain of human XIAP (residues 238-358) (Homo sapiens (Human))
Sequence (P98170 238-358): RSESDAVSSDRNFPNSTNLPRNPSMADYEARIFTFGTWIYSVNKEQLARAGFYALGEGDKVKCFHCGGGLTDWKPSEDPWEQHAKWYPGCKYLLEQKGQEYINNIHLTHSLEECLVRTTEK
Assay: Fluorescence polarization competitive binding to XIAP BIR3
Details: FP, peptide probe 5 nM, XIAP BIR3 30 nM, 1 hour room temperature
property.name: Ki (nM)

[[record]]
compound = "CN[C@@H](C)C(=O)N[C@H](C(=O)N1CCc2c1cc(Cc1ccc(F)cc1)c(=O)n2C)C1CCCCC1 [Compound I-3-1]"
result_number = 30.7


1 = [2H]C([2H])([2H])N[C@@H](C)C(=O)N[C@H](C(=O)N1CC(C)(C)c2cc(=O)n(Cc3ccc(F)cc3F)cc21)C(C)(C)C [Compound I-2-28]
2 = [2H]C([2H])([2H])N[C@@H](C)C(=O)N[C@H](C(=O)N1CCc2cc(=O)n(Cc3ccc(F)cc3)cc21)C1CCCCC1 [Compound I-2-15]
Lab note: record which item had the higher Ki, 1 or 2 . Answer = label.
1
(1: 185 nM, 2: 76.9 nM)

P = C[C@H](N)C(=O)N[C@H](C(=O)N1CCc2cc(=O)n(Cc3ccc(F)cc3F)cc21)C(C)(C)C [Compound I-2-34]
Q = CN[C@@H](C)C(=O)N[C@H](C(=O)N1CC(C)(C)c2cc(=O)n(Cc3ccc(F)cc3F)cc21)C1CCCCC1 [Compound I-2-27]
Between item P and item Q , which reported Ki is smaller? State the label of the item chosen.
P
(P: 24.1 nM, Q: 208 nM)

A = CN[C@@H](C)C(=O)N[C@H](C(=O)N1CCc2c1cc(Cc1ccc(F)cc1)c(=O)n2C)C(C)(C)C [Compound I-3-2]
B = [2H]C([2H])([2H])N[C@@H](C)C(=O)N[C@H](C(=O)N1CC(C)(C)c2cc(=O)n(Cc3ccc(F)cc3)cc21)C(C)(C)C [Compound I-2-29]
C = CN[C@@H](C)C(=O)N[C@H](C(=O)N1CCc2cc(=O)n(Cc3ccc(F)cc3F)cc21)C1CCCCC1 [Compound I-2-4]
D = CN[C@@H](C)C(=O)N[C@H](C(=O)N1CCc2cc(=O)n(Cc3ccc(F)cc3)cc21)C(C)(C)C [Compound I-2-11]
E = CN[C@@H](C)C(=O)N[C@H](C(=O)N1CC(C)(C)c2cc(=O)n(Cc3ccc(F)cc3O)cc21)C(C)(C)C [Compound I-2-32]
Sort entries by Ki from minimum to maximum value. # the answer lists labels in the order requested
A, D, C, E, B
(A: 18.4 nM, D: 31.4 nM, C: 73.2 nM, E: 343 nM, B: 568 nM)

a = CN[C@@H](C)C(=O)N[C@H](C(=O)N1CCc2c1cc(Cc1ccc(F)cc1F)c(=O)n2C)C(C)(C)C [Compound I-3-3]
b = CN[C@@H](C)C(=O)N[C@H]1CN(C(=O)CC(C)C)CC[C@H]2CC[C@@H](C(=O)NC(c3ccccc3)c3ccccc3)N2C1=O [SM-406, reference compound]
Hello, I am sorting some records. Could you say if a or b has the smaller Ki value? Selection: enter the item's label.
a
(a: 13.7 nM, b: 25.2 nM)

P = CN[C@@H](C)C(=O)N[C@H](C(=O)N1CCc2[nH]c(=O)c(Cc3ccc(F)cc3)cc21)C1CCCCC1 [Compound I-4-1]
Q = [2H]C([2H])([2H])N[C@@H](C)C(=O)N[C@H](C(=O)N1CCc2cc(=O)n(Cc3ccc(F)cc3F)cc21)C(C)(C)C [Compound I-2-35]
Could you tell me which of P and Q has the lower Ki reading? When you have decided, please share the label of that item.
P
(P: 19.9 nM, Q: 33.4 nM)
